- Tested on: MS2 coat protein
- assay.comment: apparent KD of MS2 coat protein; designed switch direction (-1 OFF switch, 1 ON switch): -1; higher = weaker reporter binding
- experimental.conditions: input ligand: none
readout: apparent KD of MS2 coat protein (nM)
Only the number, expressed in nM, is required.

Dear colleague, I am looking for the recorded apparent KD of MS2 coat protein of the following sequence: GCUGAAGGGUCGAUUACCAACAUGAGGAUCACCCAUGUUCGGAAUAAUUACAGGUUCGCUCGUCUCGAUGAAAGUCC [Eternabot (L1) Solution 19] (Eterna round: R97, puzzle: Sensor, turn-off variant 1)
21.7

Same for CUUGUUUAUGUAGGAUAUGCCUGGCGUGCCUUUGCAGAAGGACAUGAGGAUCACCCAUGUAACAUGAGGCUCACCCUUGUCGCC [salish99_ExNG1_r04_116] (Eterna round: R96, puzzle: Exclusion NG 1)
114

Same for GACUCUCCCGUGAGGAUAUAUGAGGCCAUGAUUCCAUAGAAGGCACAUGAGGAUCACCCAUGUCGGGCAUAGCC [Eternabot (L2) Solution 8] (Eterna round: R97, puzzle: Brourd's mod of Exclusion 4)
41.3

Same for GUCAGCUCGUCAGGAUAUACAUCACUGCUUCGGCAGUGUAUUAAGAUCACAUGAGGAUCACCCAUGUAGAAGGGACGAGCUGAC [ENG2/2-B1] (Eterna round: R96, puzzle: Exclusion NG 2)
21.9

Same for CAACCACGUGCAGGAUAUGCGAAGUGAUUCGGUGGUACCACAGCGUAAACAUGAGGAUCACCCAUGUAGAAGGGCAUGAGGGCU [Eternabot solution 16] (Eterna round: R96, puzzle: Exclusion NG 2)
123

Same for ACUUGUGUUGAGGAUAUGCGACGCAACGGUGGAGCAGAAGGCGGCACAUGAGGAUCACCCAUGUCAGUUCGCGA [eternacac ex6r4 sub33] (Eterna round: R97, puzzle: Exclusion 6)
14.6

Same for GGAAGGCGAGGAUAUGCAAUAAAGCAGGCGAAGGCCUGCAAACAUGAGGAUCACCCAUGUAGAAGGCGCGAGAA [AK-MS2ROC-r4-exclusion2-6.6] (Eterna round: R97, puzzle: Exclusion 2)
26.1

Same for GCACGAAGUGUAGGAUAUCUGUGCGAUUAGCUCAGAGAAGGACACAUGAGGAUCACCCAUGUGUUCCGCGGAAGCAAAACGUGC [Eli exng1 - 056] (Eterna round: R96, puzzle: Exclusion NG 1)
11.4

Same for CUCGCUGUAGGAUAUACAUAUGUCCUGUCAGCCGCGGCAGAACAUGAGGAUCACCCAUGUAGAAGGAUAGAGAG [Eternabot (Original) Solution 34] (Eterna round: R97, puzzle: Exclusion 2)
26.7
